From: the supplement of paper PMC3334620

Target: Zap1 (UniProt P47043)
Sequence: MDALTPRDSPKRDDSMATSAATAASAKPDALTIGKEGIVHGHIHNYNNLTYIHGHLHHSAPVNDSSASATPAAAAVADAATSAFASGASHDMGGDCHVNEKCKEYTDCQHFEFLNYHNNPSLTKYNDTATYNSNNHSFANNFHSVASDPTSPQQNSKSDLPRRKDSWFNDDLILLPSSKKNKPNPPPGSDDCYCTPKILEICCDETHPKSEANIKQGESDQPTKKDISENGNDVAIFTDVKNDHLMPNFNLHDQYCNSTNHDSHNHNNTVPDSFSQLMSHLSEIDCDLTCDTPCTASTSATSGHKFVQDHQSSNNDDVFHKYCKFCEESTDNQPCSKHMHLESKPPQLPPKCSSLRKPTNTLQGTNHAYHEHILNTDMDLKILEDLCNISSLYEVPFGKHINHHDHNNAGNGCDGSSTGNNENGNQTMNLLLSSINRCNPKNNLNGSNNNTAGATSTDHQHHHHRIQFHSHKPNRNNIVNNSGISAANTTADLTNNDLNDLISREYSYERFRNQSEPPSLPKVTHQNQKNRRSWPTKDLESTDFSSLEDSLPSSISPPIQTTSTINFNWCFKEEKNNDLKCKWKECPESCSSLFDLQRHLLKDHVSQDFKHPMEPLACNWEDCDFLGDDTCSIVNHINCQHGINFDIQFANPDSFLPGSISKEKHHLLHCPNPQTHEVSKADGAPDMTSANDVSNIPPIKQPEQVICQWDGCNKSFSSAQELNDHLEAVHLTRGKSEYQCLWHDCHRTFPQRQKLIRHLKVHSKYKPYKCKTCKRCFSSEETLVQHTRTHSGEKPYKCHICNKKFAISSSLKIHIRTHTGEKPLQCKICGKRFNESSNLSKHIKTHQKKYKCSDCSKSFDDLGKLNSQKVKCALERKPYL
Test: PBM E-score (8-mer binding enrichment) (E-score (-0.5 to 0.5)); higher = stronger / more preferred TF binding
Settings: protein concentration: 200 nM; construct: GST-full length
Whole data set: some 33,000 sequences, median “E-score (-0.5 to 0.5)” near -0.021, cut for the highest 2% near 0.32. What follows is part of a selection rich in the highest values, with near analogues and random picks from the rest.
Rule: PBM E-score under 0.1 gives NO, otherwise YES.

[
  {
    "construct-sequence": "ACCTTTTA",
    "answer-label": "YES"
  },
  {
    "construct-sequence": "GCGGTAAC",
    "answer-label": "YES"
  },
  {
    "construct-sequence": "AAAAGCAG",
    "answer-label": "NO"
  },
  {
    "construct-sequence": "CTGCCAGA",
    "answer-label": "NO"
  },
  {
    "construct-sequence": "TCCACGAA",
    "answer-label": "YES"
  },
  {
    "construct-sequence": "AACAACAA",
    "answer-label": "YES"
  },
  {
    "construct-sequence": "CCTCCCAG",
    "answer-label": "NO"
  },
  {
    "construct-sequence": "CCCCTAAG",
    "answer-label": "YES"
  },
  {
    "construct-sequence": "CTTTTAAC",
    "answer-label": "NO"
  },
  {
    "construct-sequence": "ATTTAACG",
    "answer-label": "NO"
  },
  {
    "construct-sequence": "ATGAGGTG",
    "answer-label": "NO"
  },
  {
    "construct-sequence": "CCCAACCC",
    "answer-label": "YES"
  },
  {
    "construct-sequence": "ACCTTTCT",
    "answer-label": "YES"
  },
  {
    "construct-sequence": "GTATTCAA",
    "answer-label": "YES"
  },
  {
    "construct-sequence": "GTGTTAAA",
    "answer-label": "NO"
  },
  {
    "construct-sequence": "CCCCGGTA",
    "answer-label": "YES"
  },
  {
    "construct-sequence": "CCAGGGGG",
    "answer-label": "NO"
  },
  {
    "construct-sequence": "CCGGGCGC",
    "answer-label": "NO"
  },
  {
    "construct-sequence": "GTCCCCCA",
    "answer-label": "NO"
  },
  {
    "construct-sequence": "ACGGTGAC",
    "answer-label": "NO"
  },
  {
    "construct-sequence": "CGGTTAAC",
    "answer-label": "YES"
  },
  {
    "construct-sequence": "ACCTTTCC",
    "answer-label": "YES"
  },
  {
    "construct-sequence": "CCGAGACC",
    "answer-label": "YES"
  },
  {
    "construct-sequence": "GTGCCCTA",
    "answer-label": "NO"
  },
  {
    "construct-sequence": "CACAACCA",
    "answer-label": "YES"
  },
  {
    "construct-sequence": "AGCCTAAT",
    "answer-label": "NO"
  },
  {
    "construct-sequence": "CACGATCC",
    "answer-label": "YES"
  },
  {
    "construct-sequence": "CCCCTAGC",
    "answer-label": "NO"
  },
  {
    "construct-sequence": "GGCTCAAA",
    "answer-label": "NO"
  },
  {
    "construct-sequence": "ACCTATAC",
    "answer-label": "YES"
  },
  {
    "construct-sequence": "ACCTATAT",
    "answer-label": "YES"
  },
  {
    "construct-sequence": "CTTTAACA",
    "answer-label": "YES"
  },
  {
    "construct-sequence": "AAAACATA",
    "answer-label": "NO"
  },
  {
    "construct-sequence": "CCCAACCA",
    "answer-label": "YES"
  },
  {
    "construct-sequence": "AGGGTGAG",
    "answer-label": "NO"
  },
  {
    "construct-sequence": "ACATTTGC",
    "answer-label": "NO"
  },
  {
    "construct-sequence": "TAAACCTA",
    "answer-label": "YES"
  },
  {
    "construct-sequence": "TACCGGTA",
    "answer-label": "YES"
  },
  {
    "construct-sequence": "AACAACCA",
    "answer-label": "YES"
  },
  {
    "construct-sequence": "ATAGGAAC",
    "answer-label": "NO"
  },
  {
    "construct-sequence": "GTTGAACA",
    "answer-label": "NO"
  },
  {
    "construct-sequence": "ACCTGAGT",
    "answer-label": "NO"
  },
  {
    "construct-sequence": "AGGGTGTC",
    "answer-label": "YES"
  },
  {
    "construct-sequence": "CACCGGTA",
    "answer-label": "YES"
  },
  {
    "construct-sequence": "TATTAGGA",
    "answer-label": "NO"
  },
  {
    "construct-sequence": "GAAACATC",
    "answer-label": "NO"
  },
  {
    "construct-sequence": "GTGACGCA",
    "answer-label": "NO"
  },
  {
    "construct-sequence": "GGGGTGAC",
    "answer-label": "YES"
  },
  {
    "construct-sequence": "TAGCCTAA",
    "answer-label": "NO"
  },
  {
    "construct-sequence": "GCAACTGC",
    "answer-label": "NO"
  },
  {
    "construct-sequence": "ACCACCGA",
    "answer-label": "YES"
  },
  {
    "construct-sequence": "TCCCTAAA",
    "answer-label": "NO"
  },
  {
    "construct-sequence": "ACGATGCG",
    "answer-label": "NO"
  },
  {
    "construct-sequence": "CAATGCAA",
    "answer-label": "NO"
  },
  {
    "construct-sequence": "AAGTATGT",
    "answer-label": "NO"
  },
  {
    "construct-sequence": "GCGGTAAA",
    "answer-label": "YES"
  },
  {
    "construct-sequence": "CCTCTTGA",
    "answer-label": "YES"
  },
  {
    "construct-sequence": "AACCTCTG",
    "answer-label": "YES"
  },
  {
    "construct-sequence": "CCCCAGGA",
    "answer-label": "NO"
  },
  {
    "construct-sequence": "ATGAGGTA",
    "answer-label": "YES"
  },
  {
    "construct-sequence": "GCCCAGAA",
    "answer-label": "NO"
  },
  {
    "construct-sequence": "CCAGGCCG",
    "answer-label": "NO"
  },
  {
    "construct-sequence": "AGATTAAA",
    "answer-label": "YES"
  },
  {
    "construct-sequence": "AACCTCTT",
    "answer-label": "YES"
  },
  {
    "construct-sequence": "CTCCTAAA",
    "answer-label": "NO"
  },
  {
    "construct-sequence": "ACCTTTCA",
    "answer-label": "YES"
  },
  {
    "construct-sequence": "AATCAGTA",
    "answer-label": "NO"
  },
  {
    "construct-sequence": "GAGCAACC",
    "answer-label": "NO"
  },
  {
    "construct-sequence": "CCAAAGGG",
    "answer-label": "YES"
  },
  {
    "construct-sequence": "AAACTTCT",
    "answer-label": "NO"
  },
  {
    "construct-sequence": "CACAACCG",
    "answer-label": "YES"
  },
  {
    "construct-sequence": "CATGACGC",
    "answer-label": "NO"
  },
  {
    "construct-sequence": "ATCCTAAG",
    "answer-label": "NO"
  },
  {
    "construct-sequence": "ATCCTAAT",
    "answer-label": "NO"
  },
  {
    "construct-sequence": "GCCCTAAC",
    "answer-label": "YES"
  },
  {
    "construct-sequence": "GAAACATA",
    "answer-label": "YES"
  },
  {
    "construct-sequence": "ACTATGGC",
    "answer-label": "NO"
  },
  {
    "construct-sequence": "CACAACCC",
    "answer-label": "YES"
  },
  {
    "construct-sequence": "AAGATGCG",
    "answer-label": "NO"
  },
  {
    "construct-sequence": "CCAATGCA",
    "answer-label": "NO"
  },
  {
    "construct-sequence": "ACCTATCC",
    "answer-label": "YES"
  },
  {
    "construct-sequence": "CACTAGAG",
    "answer-label": "NO"
  },
  {
    "construct-sequence": "GGGTTTAA",
    "answer-label": "YES"
  },
  {
    "construct-sequence": "CAACTAAG",
    "answer-label": "NO"
  },
  {
    "construct-sequence": "ATCTGCTG",
    "answer-label": "NO"
  },
  {
    "construct-sequence": "GCCTTTTA",
    "answer-label": "NO"
  },
  {
    "construct-sequence": "AACAACCC",
    "answer-label": "YES"
  },
  {
    "construct-sequence": "ATTTAACC",
    "answer-label": "YES"
  },
  {
    "construct-sequence": "AGGGTGAC",
    "answer-label": "YES"
  },
  {
    "construct-sequence": "AACAACCT",
    "answer-label": "YES"
  }
]
